Just for reference, a melting point compilation (Tetko et al.; mined from patent text by program, amines drawn as free bases though some values may be those of a salt) is where these values come from.

What melting point was measured for each of the following?

query: Sample `Oc1ccc(-c2c(Cl)c3cc(O)ccc3n2Cc2ccc(OCCN3CCCC3)cc2)cc1` — what was its melting point?
result: 233 to 235 °C

query: Next record, please: `CCOC(=O)C=Cc1ccc(OC)nc1`
result: 49 to 52 °C

query: Then this compound: `COC(=O)c1cc(S(C)(=O)=O)c(S(F)(F)(F)(F)F)cc1C`
result: 127 °C

query: What do we get for `COc1cccc(C(=O)Nc2ccccc2C(c2ccc(O)cc2)c2ccc(O)cc2)c1` ?
result: 165 to 168 °C

query: Same for CCCCCC1=C(CCCCC)CC(CNC(=O)Nc2c(C(C)C)cccc2C(C)C)SC1 (stereo unspecified)
result: 65 to 67 °C

query: Param item: CC(C)CC(C(=O)c1cccc(Cl)c1)c1ccccc1NC(C)(C)C (stereo unspecified)
result: 172 to 174 °C

query: Consider next the compound `O=C(N[C@H]1CCCNC1=O)c1cccc(F)c1F` in the same way.
result: 160 to 162 °C

query: Would you kindly repeat that for CCOC(=O)C1CCC(c2ccccc2)n2c(=O)n(CCCl)c(=O)n21 (stereo unspecified) ?
result: 87 to 89 °C

query: Repeat for the following compound: `C=CCc1c(C)nc(C)nc1NCc1ccc(-c2ccccc2-c2nnn[nH]2)cc1`
result: 259 to 260 °C

query: What would you report for `CC(C)c1nsc(N=C(Br)N(C)C)c1C#N` ?
result: 92 to 96 °C

query: Then this compound: `Nc1nc(Oc2ccc(O)cc2)nc2nc(-c3ccco3)nn12`
result: 292 to 294 °C

query: Same for Cc1ccc2c(c1)C(O)(c1ccccc1Cl)C(=O)N2 (stereo unspecified)
result: 295 to 300 °C

query: Now consider `CCOc1cnc(-c2cc(Cl)c(OC)c3ccccc23)s1` .
result: 67 to 68 °C

query: // repeat for `CNC(=Nc1cccc(C(F)(F)F)c1)C(C)C` and report
result: 52 to 54 °C

query: Can you handle `CC1(C)Cc2c(N)c(Cl)cc(C(=O)NC3CCN(CCNc4nc(O)c5cc(Cl)ccc5n4)CC3)c2O1` next?
result: 207 °C

query: Next compound: `O=C(O)CCc1cc2cc(C(=O)c3ccccc3)ccc2n1S(=O)(=O)c1ccccc1`
result: 138 °C

query: What would you report for `Nc1ncc(C#Cc2ccc(Cl)cc2)c(NCCOCCO)n1` ?
result: 176 to 180 °C

query: Let us now turn to `CC(C)OC(=O)c1cc(-n2c(=O)c(F)c(CF)n(C)c2=O)c(F)cc1Cl`
result: 85 to 89 °C

query: How about this compound: CCCn1c(=O)c2[nH]c(C(CO)Cc3ccccc3)nc2n(CCC)c1=O (stereo unspecified)
result: 145 to 146 °C

query: Check N#CC(O)c1cccc2c(-c3ccccc3)c([N+](=O)[O-])oc12 (stereo unspecified) too.
result: 137 to 139 °C

query: Now give it for C=CCC1C(=O)c2cc(OC)ccc2C2CCC3(C)C(O)CCC3C12 (stereo unspecified) too.
result: 122 to 123 °C

---

What melting point was measured for each of the following?

query: Dear colleague, I am looking for the recorded melting point of the following molecule: `CC(=O)NCC(C)(C)c1ccc2nc(-c3ccncc3)[nH]c2c1`
result: 219 to 225 °C

query: Can you handle `CC(C)(O)Cc1c2c(nn1CCO)c(N)nc1ccccc12` next?
result: 196 to 198 °C

query: Would you mind doing CCOC(=O)C(C)Oc1ccc(-c2nc(-c3ccc(OC(C)C(=O)OCC)cc3O)nc(-c3ccc(OC(C)C(=O)OCC)cc3O)n2)c(O)c1 (stereo not given) as well?
result: 115 to 120 °C

query: Try `CN(C)c1ccc([N+](=O)[O-])c(C(=O)O)c1` next.
result: 185 to 187 °C

query: Also Cc1ccc(O[C@@H]2CNCC[C@H]2O)cc1C (relative stereo) ?
result: 98 to 99 °C

query: Now the same for CC(=O)C1Oc2c(C(C)(C)C)cc(Cl)cc2C1(C)C (stereo not given)
result: 76 to 77 °C

query: Please give the result for CC[C@@H]1C(=O)N(Cc2ccc(OC)cc2OC)[C@H]1CC(=O)O (relative stereo) too.
result: 131 °C

query: Subsequent entry: `CN(CCc1ccc(O)c(O)c1)C(=O)OCc1ccccc1`
result: 105 to 106 °C

query: Also `Cc1nc(Cl)c(S(C)(=O)=O)c(Cl)n1` , if possible.
result: 146 to 147 °C

query: `CC(C)(C)c1ccc(C(=O)Cc2ccncc2)cc1` , same question.
result: 75 to 76 °C

---

For each of the compounds below, state its melting point.

query: May I ask what melting point has been recorded for `CCC(=O)Nc1nc(C(Cl)(Cl)Cl)ns1` ?
result: 150 °C

query: Note, next up: CC(C)(C)OC(=O)C1C=CCn2c(=O)n(CCCl)c(=O)n21 (stereo not given)
result: 87 to 88 °C

query: Moving on to `O=C(Nc1ccc(Oc2ccnc(NC3CC3)n2)c2ccccc12)c1cc(F)cc(N2CCCCC2)c1`
result: 157 to 158 °C

query: And for `CC(C)c1csc(/C=C/c2cccc(NC(=O)Cc3cccc(CC(=O)O)c3)c2)n1` ?
result: 122 to 124 °C

query: Query `O=S(=O)(c1ccccc1)n1cnc(-c2ccc(F)cc2)c1-c1ccc(F)cc1` next
result: 172 to 175 °C

query: Also need `CCOC(=O)C=Cc1cc(Cl)cc(Cl)c1` , thanks.
result: 71 to 73 °C

query: `Cc1nc(OCCCc2cc(OC(C)C)nn2Cc2ccc(Cl)cc2Cl)c(CC#N)s1` ?
result: 92 to 93 °C

query: Query `COc1ccc(CSc2cccc(C(=O)Nc3ccc(C#N)cn3)c2)cc1` next
result: 163 to 164 °C

query: Also need O=C(NOC1CCCCO1)c1cnc(N2CCC(NS(=O)(=O)c3ccc4ccccc4c3)CC2)nc1 (stereo not given) , thanks.
result: 226 °C

query: Next record, please: COC(=O)C1(C)Cc2c(OC)ccc(OC)c2CO1 (stereo not given)
result: 73 to 74.5 °C

---

measured-endpoint: melting point

query: Which melting point reading was recorded for the molecule `O=C(O)c1ccc(C(c2ccc(C(=O)O)c([N+](=O)[O-])c2)(C(F)(F)F)C(F)(F)F)cc1[N+](=O)[O-]` ?
result: 235 to 238 °C

query: Next entry: `COC(=O)c1c(C)c(OC)cc(O)c1C=O`
result: 118 to 119 °C

query: And `CNC(=O)c1ccccc1-c1cc(-c2ccccc2)on1` ?
result: 159 to 160 °C

query: Please do the same for `CCCN1C(=O)CC(C)(C)c2cc(C)c(-c3cc(C=C4SC(=O)NC4=O)ccc3N(C)C)cc21` as well.
result: 258 to 260 °C

query: Moving on to Nc1nc(OC2CCC2)c2ncn(C3CC(F)C(CO)O3)c2n1 (centres undefined)
result: 139 to 140 °C

query: Moving on to `COc1ccc(-c2cc(C(N)=O)c(=O)n(CC3CC3)n2)cc1`
result: 182 to 183 °C

query: Same question, `CC(C)(C)[Si](C)(C)O[C@H]1OC[C@@H](n2cnc3cc(Cl)c(Cl)cc32)[C@H](O)[C@@H]1O` this time
result: 128 to 130 °C

query: What about this molecule? `CCCCc1ccc(-c2ccc(-c3ccc(CC)cc3)cc2F)s1`
result: 37 °C

query: Ok, now CC1(C)C2C=CC3(C)C(C2)C(=O)CCC13O[Si](C)(C)C (centres undefined)
result: 73 to 76 °C

query: What about this molecule? `N#Cc1cc(-c2ncccc2C(=O)O)ccc1OCCc1ccccc1[N+](=O)[O-]`
result: 216 to 217 °C

query: Could you do the same for `O=C(Nc1ccc2ccc(Cl)nc2n1)c1ccc(Cl)c(Cl)c1` , please?
result: 230 °C

query: And `Cc1cc(CN2CCC(N(C)S(=O)(=O)c3ccc(Nc4nccc(Nc5ccc(F)c(C)c5)n4)cc3)CC2)[nH]n1` ?
result: 130 °C

query: Follow-up entry: `C[C@H](N[C@@H]1CNC(=O)C12CC2)c1ccccc1`
result: 107 to 110 °C

query: Next up: CCCCN(CC(O)C(Cc1ccccc1)NC(=O)C(CC(N)=O)NC(=O)NCc1ccccc1)C(=O)NC(C)(C)C (centres undefined)
result: 166 to 167 °C

query: Record: CN1CCCC(c2cccc3ccc(N)cc23)C1 (centres undefined)
result: 117 to 120 °C

query: Request: `CCNc1nc2c(C)sc(C(=O)OC)c2n1Cc1ccc(-c2ccccc2C#N)cc1`
result: 190 to 191 °C

query: Another molecule: `COC(=O)C=CCOc1ccc(F)c(C(N)=O)c1F`
result: 122 to 123 °C

query: Again, but for `CC(C)(C)OC(=O)Nc1cc(CC#N)c(C#Cc2ccccc2)cc1NC(=O)CC(=O)c1cccc(C#N)c1`
result: 98 °C

query: Item: `CC#CCOc1cc(N(C)c2cccc(F)c2F)ncn1`
result: 77.5 °C
